Where do the numbers come from? From ChEMBL document CHEMBL1201862.

Provide the recorded GI50 for the entries that follow.
test system: ACHN; experiment: NCI tumour cell line growth inhibition, 48 h
Activity calls are given as the source filed them. No stated cut-off is given here; in the data, active = GI50 up to about 1.1 µM and inactive = higher. Where a SMILES comes first, the peptide text is derived from it. [ ]: non-standard residue; d: D form. The star is where a group is joined. Bn2Val = CC(C)[C@@H](C(=O)*)N(Cc1ccccc1)Cc1ccccc1; NH(4-F-benzyl) = Fc1ccc(CN*)cc1; NMeV = CN[C@H](C(=O)O)C(C)C; dNMeA = CN[C@H](C)C(=O)O

Could you share which GI50 value was measured for "COc1ccc2c(ccc3c(COC(=O)NC(C)C)c(COC(=O)NC(C)C)n(C)c32)c1" ?
1.81 µM (inactive)

Look at this compound and give its reported GI50. "Clc1ccc(Nc2nnc(CNc3ccc(-c4nnc(Nc5ccc(Cl)cc5)o4)cc3)o2)cc1"
17.1 µM (inactive)

// GI50 lookup, key: CN(C)c1ccc([S+]([O-])Nc2ccccc2)cc1 (stereo not given)
29.6 µM (inactive)

// query GI50 value for entry "O=C1CCCc2ccc([N+](=O)[O-])c(O)c21"
48.9 µM (inactive)

Report GI50 for "CC(C)CC(=O)NS(=O)(=O)c1ccccc1" please.
> 100 µM (inactive)

What does the record list as GI50 for CC(C)[C@H](NC(=O)[C@H](C(C)C)N(Cc1ccccc1)Cc1ccccc1)C(=O)N(C)[C@H](C(=O)N1CCC[C@H]1C(=O)N(C)[C@H](C)C(=O)NCc1ccc(F)cc1)C(C)C (Bn2Val-V[NMeV]P[dNMeA]-{NH(4-F-benzyl)}) ?
3.33 µM (inactive)

State the recorded GI50 for this entry: COCN1C(N)=C(C(=O)OC(C)(C)C)C2=CC(=O)C=CC21C (stereo not given)
7.01 µM (inactive)

Give its GI50 value. Item: "O=P(O)(O)OP(=O)(O)O"
> 100 µM (inactive)

Give the measured GI50 of "Sc1nnc(/C=C/c2ccc(Cl)c(Cl)c2)[nH]1" .
> 100 µM (inactive)

Requested field: GI50. Item: "CC(C)(C)NN=C1C(C)(C)C(=NNC(C)(C)C)C1(C)C"
> 100 µM (inactive)

What does the record list as GI50 for "COc1ccc([C@@]23OC[C@@H]4[C@@H](OC[C@@H]42)c2cc(OC)c(OC)cc23)cc1OC" ?
> 100 µM (inactive)

Given "COc1cccc(-c2cc(O)c3cc(C)cnc3n2)c1" , state its recorded GI50.
0.0625 µM (active)

// query GI50 value for entry "O=C(O)c1ccc(C(=O)O)c(C(=O)Nc2ccc3c(c2)C(=O)c2ccccc2-3)c1"
> 100 µM (inactive)

Which value of GI50 has been reported for Cc1ccc(O)c(C2=CC(c3cccc(Br)c3)SC(=N)N2)c1 (stereo not given) in the records?
23.3 µM (inactive)

Report GI50 for NC[C@H]1Nc2ccccc2[C@@H](O)C1O (stereo not given in full) please.
> 100 µM (inactive)

Give the measured GI50 of "Cc1ccccc1NC(=S)N/N=C(/c1ccccc1)c1ccccn1" .
< 0.01 µM (active)

Could you tell me which GI50 is on file for Cc1nn(C(=O)Cc2ccccc2)c2c1C(c1ccc(/C=C/c3ccccc3)cc1)SC(=N)N2 (stereo not given) ?
> 100 µM (inactive)

Given the entry "CCCCc1c2c(nc3c1CCc1cc4cc5c(nc4nc1-3)-c1nc3c(c(CCCC)c1CC5)CCCC3)CCCC2" , report its measured GI50.
23.8 µM (inactive)

Would you kindly share the measured GI50 for CC1OC(n2cc(Cl)c(=O)[nH]c2=O)C=C(OC(=O)c2ccccc2)C1=O (stereo not given) ?
> 100 µM (inactive)

Consider the compound "N#C/C(=C/c1cccc(Oc2ccccc2)c1)c1ccccc1" and give its measured GI50.
> 100 µM (inactive)

====

test system: NCI/ADR-RES; assay: NCI tumour cell line growth inhibition, 48 h
The source made the active and inactive calls. Cut-off read from the data, not from the text of the source: active = GI50 up to about 1.1 µM and inactive = higher. Where a SMILES comes first, the peptide text is derived from it. [ ]: non-standard residue; d: D form. The star is where a group is joined. Bn2Val = CC(C)[C@@H](C(=O)*)N(Cc1ccccc1)Cc1ccccc1; NH(4-F-benzyl) = Fc1ccc(CN*)cc1; NMeV = CN[C@H](C(=O)O)C(C)C; dNMeA = CN[C@H](C)C(=O)O
quantityKind: GI50

Requested read-out: GI50. Entry: CC1(C)CC2C(/C1=N/O)C1(C)CCCC2(C)C1O (stereo not given)
> 100 µM (inactive)

Need GI50, item COCN1C(N)=C(C(=O)OC(C)(C)C)C2=CC(=O)C=CC21C (stereo not given)
25.2 µM (inactive)

I have this molecule here, "COc1cc(C)cc2c1C(=O)C(NC(C)=O)=CC2=O" , and I need its recorded GI50.
> 100 µM (inactive)

I have this molecule here, "CC(C)OC(=O)c1ccc(NCc2cc(O)ccc2O)cc1Cl" , and I need its recorded GI50.
2.78 µM (inactive)

// GI50 lookup, key: "Nc1c(S(=O)(=O)O)cc(Nc2cccc(S(N)(=O)=O)c2)c2c1C(=O)c1ccccc1C2=O"
> 100 µM (inactive)

For the molecule "CCO/C=N/C1=C(C#N)SC2=N/C(=C\c3ccccc3)C(=O)N21" , what GI50 is on record?
> 100 µM (inactive)

Which measured GI50 value corresponds to "C/C([O-])=C(/c1nc(-c2ccc([N+](=O)[O-])o2)no1)[n+]1cc(C)ccc1C" ?
35 µM (inactive)

Fill blank: measured GI50 of the molecule "CC1=NN(c2nc(N)nc(COCc3nc(N)nc(N4N=C(C)CC4(C)C)n3)n2)C(C)(C)C1" is ____.
> 100 µM (inactive)

Looking for the measured GI50 of COc1ccc(C2SCC(=O)N2c2ccc(-n3c(-c4ccccc4)nc4ccccc4c3=O)cc2)cc1 (stereo not given) , can you help?
8.89 µM (inactive)

Requested field: GI50. Item: "CC1=NN(C(=O)c2ccncc2)C(=O)C1"
> 100 µM (inactive)

# GI50 lookup, item O=C(CCC1CCCCN1)Nc1ccc2c(c1)C(=O)c1ccc(NC(=O)CCN3CCCCC3)cc1C2=O (stereo not given)
> 10 µM (inactive)

GI50 for OC1c2ccccc2CC12Cc1ccccc1C2 (stereo not given) ?
54.7 µM (inactive)

What does the data say about its GI50? Entry: "O=C(/C=C/c1ccc(Cl)cc1)c1nc2ccccc2[nH]1"
42.5 µM (inactive)

Tell me the measured GI50 of O=C(O)C1=C(C(=O)O)N(c2ccncc2)C(c2ccco2)=CC1c1ccccc1[N+](=O)[O-] (stereo not given) , please.
22.6 µM (inactive)

What value of GI50 has been recorded for this entry: CC(Nc1ccc(Cl)c(Cl)c1)c1ccncc1 (stereo not given)
28.1 µM (inactive)

Requested field: GI50. Item: CCOC(=O)c1ccc(N[C@@H]2c3cc4c(cc3C(c3cc(OC)c(O)c(OC)c3)[C@H]3C(=O)OCC32)OCO4)cc1 (stereo not given in full)
1.42 µM (inactive)

Given "O=C(O)CN(CCNC(=O)OCC1c2ccccc2-c2ccccc21)CCNC(=O)OCC1c2ccccc2-c2ccccc21" , state its recorded GI50.
45.2 µM (inactive)

What value of GI50 has been recorded for this entry: "Cc1cc2nc3c(C#N)c(-c4ccccc4)cc(Nc4ccc(F)cc4)n3c2cc1C"
8.11 µM (inactive)

Entry "COP(=O)(OC)[C@H](O)[C@H]1C[C@@H]1c1ccccc1" has what GI50?
> 100 µM (inactive)

Data request, read-out GI50, for O=c1cnn(C2OC(CO)C(O)C2O)c(=S)[nH]1 (stereo not given)
> 79.3 µM (inactive)

Suppose we examine the molecule "Cc1cc(S(=O)(=O)N/C(=C(\C#N)C(=O)c2ccc(Cl)cc2)[n+]2ccc(N(C)C)cc2)c([S-])cc1Cl" ; what GI50 value has been reported?
73.3 µM (inactive)

Could you tell me which GI50 is on file for CC(C)[C@H](NC(=O)[C@H](C(C)C)N(Cc1ccccc1)Cc1ccccc1)C(=O)N(C)[C@H](C(=O)N1CCC[C@H]1C(=O)N(C)[C@H](C)C(=O)NCc1ccc(F)cc1)C(C)C (Bn2Val-V[NMeV]P[dNMeA]-{NH(4-F-benzyl)}) ?
4.38 µM (inactive)

Fill in the blank: the reported GI50 of CCOP(=O)(OCC)OC1CC(n2cnc3c(N(CC)CC)ncnc32)OC1CO[Si](C)(C)C(C)(C)C (stereo not given) is ____.
20.8 µM (inactive)

Entry "Cc1ccccc1NC(=O)O/N=C(\Cl)C(C)C" : reported GI50 = ?
16.5 µM (inactive)

Entry CCCCOP(C)(=O)C(NC(=O)OCC)(C(F)(F)F)C(F)(F)F (stereo not given) : reported GI50 = ?
> 100 µM (inactive)

Which GI50 is listed for CCOC(=O)CC1Nc2ccccc2C12CCc1c([nH]c3ccccc13)C2C(=O)OCC (stereo not given) ?
12.6 µM (inactive)

What does the record list as GI50 for "COc1ccc2nc3cc([N+](=O)[O-])ccc3c(NNc3ccc([N+](=O)[O-])cc3)c2c1" ?
61.8 µM (inactive)

Which GI50 value belongs to CC1=NN(C(=O)c2ccncc2)C(=O)C1/N=N/c1ccc2ccccc2c1 (stereo not given) ?
13.7 µM (inactive)

What GI50 value was documented for this molecule, "[O-][n+]1ccccc1Sc1nc(Sc2cccc[n+]2[O-])nc(Sc2cccc[n+]2[O-])n1" ?
2.92 µM (inactive)

Give its GI50 value. Item: COC1(C2c3ccccc3CCN2C(=O)OC(C)(C)C)C(=O)C(c2ccccc2)=C1N(C)C (stereo not given)
21.1 µM (inactive)

Look up GI50: "COc1cc([C@@H]2c3cc4c(cc3[C@@H](NCCNCCO)[C@H]3COC(=O)[C@H]23)OCO4)cc(OC)c1O"
> 99.5 µM (inactive)

I'd like to know its GI50. The molecule in question is CCCCCC(CO)C(O)(C(F)(F)F)C(F)(F)F (stereo not given)
> 10 µM (inactive)

Please give the measured GI50 for this molecule: "CC1=NN=C(C)C1/N=N/c1ccc2[nH]c(C)nc2c1"
38.4 µM (inactive)

Report GI50 for "CCc1nc2ccc(C(F)(F)F)cc2[nH]c1=O" please.
> 100 µM (inactive)

# lookup: GI50 of "c1ccc(-c2cc(-c3cc(-c4ccccc4)[nH]n3)[nH]n2)cc1"
> 100 µM (inactive)

State the recorded GI50 for this entry: "c1ccc(-c2sc(-c3cccs3)cc2Cc2cccs2)cc1"
> 10 µM (inactive)

Looking for the measured GI50 of CC(=O)NCC1(c2ccccc2)CCN(CC2COc3ccccc3O2)CC1 (stereo not given) , can you help?
> 100 µM (inactive)

Need GI50, item C1CSCCSS[C@@H]2CCCCC2SC1 (stereo not given in full)
> 100 µM (inactive)

Look at this molecule and give its reported GI50. "Cc1nn(C)c2nc3ccc(Cl)cc3c(-c3ccccc3)c12"
> 100 µM (inactive)

Which value of GI50 has been reported for "O=C(O)c1cc2ccccc2c(O)c1O" in the records?
19.4 µM (inactive)
